molecular target: N-cNOS (Rattus norvegicus, UniProt P29476); construct: a soluble cytosolic fraction of the finally obtained supernate was used as the crude enzyme sample of N-cNOS; from tissue; host or cells: cerebral cortex of normal untreated male Sprague-Dawley rats, 100,000×g cytosolic supernatant; assay: Inhibition of N-cNOS activity, L-[3H]arginine to L-[3H]citrulline conversion (rat cerebral cortex cytosol); assay type: biochemical; conditions: rat cerebral cortex soluble cytosolic fraction; 100 nM L-[3H]arginine, 37° C., 10 min; mean±standard error, n in parentheses; read-out: IC50 values, N-cNOS (Brain cytosol)
Sequence (P29476 whole entry): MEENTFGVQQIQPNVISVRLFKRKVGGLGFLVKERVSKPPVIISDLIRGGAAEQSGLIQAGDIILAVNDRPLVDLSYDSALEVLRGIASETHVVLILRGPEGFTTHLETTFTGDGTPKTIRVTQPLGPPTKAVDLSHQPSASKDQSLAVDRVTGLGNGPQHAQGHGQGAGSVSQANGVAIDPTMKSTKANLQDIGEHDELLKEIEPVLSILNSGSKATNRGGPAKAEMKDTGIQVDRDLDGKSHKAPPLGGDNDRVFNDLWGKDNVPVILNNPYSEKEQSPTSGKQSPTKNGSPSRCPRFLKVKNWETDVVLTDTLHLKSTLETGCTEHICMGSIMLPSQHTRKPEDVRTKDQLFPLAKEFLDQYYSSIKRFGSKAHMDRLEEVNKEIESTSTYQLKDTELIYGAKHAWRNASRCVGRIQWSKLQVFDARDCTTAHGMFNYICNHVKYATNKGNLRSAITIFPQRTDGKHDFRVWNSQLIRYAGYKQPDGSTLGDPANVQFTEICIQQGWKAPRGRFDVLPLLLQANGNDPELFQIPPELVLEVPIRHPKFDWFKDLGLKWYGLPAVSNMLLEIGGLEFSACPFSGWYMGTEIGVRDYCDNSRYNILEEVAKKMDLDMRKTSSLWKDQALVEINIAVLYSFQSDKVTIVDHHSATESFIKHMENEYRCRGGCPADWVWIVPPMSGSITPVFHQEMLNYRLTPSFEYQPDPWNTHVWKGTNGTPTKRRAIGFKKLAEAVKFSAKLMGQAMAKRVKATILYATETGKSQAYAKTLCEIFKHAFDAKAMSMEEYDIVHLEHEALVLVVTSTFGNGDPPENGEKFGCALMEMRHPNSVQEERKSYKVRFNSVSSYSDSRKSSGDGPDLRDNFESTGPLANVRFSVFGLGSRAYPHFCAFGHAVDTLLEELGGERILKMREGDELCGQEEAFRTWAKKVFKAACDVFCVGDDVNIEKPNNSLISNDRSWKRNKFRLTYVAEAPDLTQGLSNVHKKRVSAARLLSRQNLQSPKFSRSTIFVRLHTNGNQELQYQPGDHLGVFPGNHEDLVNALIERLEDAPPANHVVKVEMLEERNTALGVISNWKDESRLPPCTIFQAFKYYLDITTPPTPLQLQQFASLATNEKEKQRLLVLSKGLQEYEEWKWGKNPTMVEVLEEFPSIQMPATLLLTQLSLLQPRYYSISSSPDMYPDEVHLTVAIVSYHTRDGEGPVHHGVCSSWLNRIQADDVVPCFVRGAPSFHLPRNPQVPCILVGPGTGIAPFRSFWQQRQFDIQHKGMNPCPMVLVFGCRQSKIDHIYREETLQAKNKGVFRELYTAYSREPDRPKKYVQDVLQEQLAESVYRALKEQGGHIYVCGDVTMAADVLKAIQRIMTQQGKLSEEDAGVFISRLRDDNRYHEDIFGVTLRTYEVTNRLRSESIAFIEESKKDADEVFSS
pIC50: −log10 of the molar value.
measured-endpoint: pIC50

[P] N=C(N)NN [AG, aminoguanidine, reference compound]
[Q] C=CCNC(N)=NCCC[C@H](N)C(=O)O [L-ALA, N^G -allyl-L-arginine, reference compound]
Could you tell me which of these two has the smaller pIC50 figure? First: P Second: Q Identify your pick by its label.
P

* * *

biological target: E-cNOS (Bos taurus, UniProt P29473); construct: the mixture was homogenized for 3 min to yield the crude enzyme sample of E-cNOS; endogenous in cells; host or cells: CPAE (cow pulmonary arterial endothelium) cells, whole homogenate; experiment: Inhibition of E-cNOS activity, L-[3H]arginine to L-[3H]citrulline conversion (CPAE homogenate); format: biochemical, cow; conditions: cow pulmonary arterial endothelium homogenate; 100 nM L-[3H]arginine, 37° C., 10 min; mean±standard error, n in parentheses; read-out: IC50 values, E-cNOS (CPAE)
measured-endpoint: IC50 (nM)

[P] C=CCNC(N)=NCCC[C@H](N)C(=O)O [L-ALA, N^G -allyl-L-arginine, reference compound]
[Q] COC(=O)[C@@H](N)CCCNC(=N)N[N+](=O)[O-] [L-NAME, N^G -nitro-L-arginine methyl ester]
[R] CC(=N)NCCC[C@H](N)C(=O)O [L-NIO, N^G -iminoethyl-ornithine]
Reorder the items by IC50, least to greatest. Please express your ranking as an ordered list of the labels.
Q, R, P
(Q: 985 nM, R: 2230 nM, P: 15100 nM)

* * *

biological target: N-cNOS (Rattus norvegicus); construct: a soluble cytosolic fraction of the finally obtained supernate was used as the crude enzyme sample of N-cNOS; from tissue; host or cells: cerebral cortex of normal untreated male Sprague-Dawley rats, 100,000×g cytosolic supernatant; assay: Inhibition of N-cNOS activity, L-[3H]arginine to L-[3H]citrulline conversion (rat cerebral cortex cytosol); format: biochemical
measured-endpoint: pIC50
Lab note — pIC50 values are minus log10 of concentrations in M.

Entry under review: CSC(=N)NCCC[C@H](N)C(=O)O.Cl.Cl [Example 1, Dihydrochloride] . Reported pIC50?
8.25

* * *

Overview of reported pIC50 across a group of compounds:
biological target: E-cNOS (Bos taurus); construct: the mixture was homogenized for 3 min to yield the crude enzyme sample of E-cNOS; endogenous in cells; host or cells: CPAE (cow pulmonary arterial endothelium) cells, whole homogenate; assay: Inhibition of E-cNOS activity, L-[3H]arginine to L-[3H]citrulline conversion (CPAE homogenate); format: biochemical, cow
Expect pIC50 as a plain number equal to -log10 of the molar concentration.

Return pIC50 measured with E-cNOS (Bos taurus) given this compound: CSC(=N)NCCC[C@H](N)C(=O)O.Cl.Cl [Example 1, Dihydrochloride]
6.62

Identify the measured pIC50 of "N/N=C(\N)NCCC[C@H](N)C(=O)O" for E-cNOS (Bos taurus).
6.28
